Data provenance is patent US20180161428A1.

Target or system: T1, hFc · flag · hPSMA (human, UniProt Q04609 44-750)
T1 construct: The order of the parts follows the printed label; also called human PSMA; h PSMA-Fc; not shown: human Fc (hFc); flag tag
T1 sequence (Q04609 44-750 limits assumed): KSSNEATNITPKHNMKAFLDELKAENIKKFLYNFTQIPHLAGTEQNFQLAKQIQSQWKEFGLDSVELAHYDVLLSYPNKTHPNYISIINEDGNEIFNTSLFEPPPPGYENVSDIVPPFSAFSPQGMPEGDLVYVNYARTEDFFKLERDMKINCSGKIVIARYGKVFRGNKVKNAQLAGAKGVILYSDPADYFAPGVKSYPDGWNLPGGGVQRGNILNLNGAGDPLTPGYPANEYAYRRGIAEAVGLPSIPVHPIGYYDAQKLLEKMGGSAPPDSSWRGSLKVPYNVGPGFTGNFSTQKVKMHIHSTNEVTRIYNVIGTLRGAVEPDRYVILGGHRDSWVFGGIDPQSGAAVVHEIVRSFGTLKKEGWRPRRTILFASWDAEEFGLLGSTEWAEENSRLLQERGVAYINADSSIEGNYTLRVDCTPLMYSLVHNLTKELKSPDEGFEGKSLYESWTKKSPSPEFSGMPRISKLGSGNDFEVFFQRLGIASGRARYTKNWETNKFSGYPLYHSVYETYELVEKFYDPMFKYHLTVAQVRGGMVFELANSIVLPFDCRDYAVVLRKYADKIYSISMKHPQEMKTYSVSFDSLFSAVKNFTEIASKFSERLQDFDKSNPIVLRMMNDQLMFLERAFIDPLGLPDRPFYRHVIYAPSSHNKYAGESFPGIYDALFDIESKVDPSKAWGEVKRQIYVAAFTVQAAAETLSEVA
Assay overview: BLI (OCTET), expression supernatants, hFc.flag.hPSMA
Measured quantity: kon (M⁻¹ s⁻¹)
Field: numeric (M⁻¹ s⁻¹). Do not append units.

Solved cases below.
Binder	Measured quantity	Assay value
anti-PSMA G55K sdAb.6his (VHH) VHH: EVQLVESGGGLVQPGGSLTLSCAASRFMISEYSMHWVRQAPGKGLEWVSTINPAKTTDYAESVKGRFTISRDNAKNTLYLQMNSLKPEDTAVYYCDGYGYRGQGTQVTVSS	kon	556000
anti-PSMA E31P sdAb.6his (VHH) VHH: EVQLVESGGGLVQPGGSLTLSCAASRFMISPYSMHWVRQAPGKGLEWVSTINPAGTTDYAESVKGRFTISRDNAKNTLYLQMNSLKPEDTAVYYCDGYGYRGQGTQVTVSS	kon	383000
anti-PSMA S33H T50D G97SsdAb.6his (VHH) VHH: EVQLVESGGGLVQPGGSLTLSCAASRFMISEYHMHWVRQAPGKGLEWVSDINPAGTTDYAESVKGRFTISRDNAKNTLYLQMNSLKPEDTAVYYCDSYGYRGQGTQVTVSS	kon	800000

Kindly consider the entry below.
GET /value?item= anti-PSMA S33H G97SsdAb.6his (VHH) VHH: EVQLVESGGGLVQPGGSLTLSCAASRFMISEYHMHWVRQAPGKGLEWVSTINPAGTTDYAESVKGRFTISRDNAKNTLYLQMNSLKPEDTAVYYCDSYGYRGQGTQVTVSS &field=kon returns 936000
